Source: ChEMBL document CHEMBL2163192

- METHOD SUMMARY: Half life in Wistar rat at 10 mg/kg, po
- Assay type: ADME, organism-based
- Parameters: dose 10 mg/kg, route oral
- RUN CONDITIONS: in vivo
READOUT KIND: half-life (h)
Answers are plain numbers, in h.

Query: Return reported half-life. Input molecule: COc1ccc2c(c1)c1c(n2S(=O)(=O)c2ccccc2)CCC(N(C)C)C1 (racemic)
Reply: 7.67

* * *

- METHOD SUMMARY: Volume of distribution in Wistar rat at 10 mg/kg, iv
- Format: ADME, organism-based
- Set-up: dose 10 mg/kg, route intravenous
- RUN CONDITIONS: in vivo
READOUT KIND: Vd (L/kg)
Numbers only, in L/kg.

Query: Return reported Vd. Input molecule: COc1ccc2c(c1)c1c(n2S(=O)(=O)c2ccccc2)CCC(N(C)C)C1 (racemic)
Reply: 24.3

* * *

- TGT: Histamine H3 receptor (Homo sapiens)
- METHOD SUMMARY: Inhibition of histamine H3 receptor at 10 uM
READOUT KIND: inhibition (%)
Numbers only, in %.

Below, 3 compounds whose answers are already recorded.
COMPOUND: COc1ccc2c(c1)c1c(n2S(=O)(=O)c2ccccc2)CCC(N(C)C)C1 (racemic)
UNIT TAG: %
inhibition: 32.7
--
COMPOUND: CN(C)C1CCc2c(c3ccccc3n2S(=O)(=O)c2cccc(Cl)c2)C1 (racemic)
UNIT TAG: %
inhibition: 39.9
--
COMPOUND: CN(C)C1CCc2c(c3ccccc3n2S(=O)(=O)c2cccc(C(F)(F)F)c2)C1 (racemic)
UNIT TAG: %
inhibition: 49.1

Query: Return reported inhibition. Input compound: CN(C)C1CCc2c(c3cc(Br)ccc3n2S(=O)(=O)c2ccccc2)C1 (racemic)
Reply: 24.8

* * *

- TGT: Alpha-1B adrenergic receptor (Homo sapiens) (UniProt P35368)
- Sequence (P35368 whole entry): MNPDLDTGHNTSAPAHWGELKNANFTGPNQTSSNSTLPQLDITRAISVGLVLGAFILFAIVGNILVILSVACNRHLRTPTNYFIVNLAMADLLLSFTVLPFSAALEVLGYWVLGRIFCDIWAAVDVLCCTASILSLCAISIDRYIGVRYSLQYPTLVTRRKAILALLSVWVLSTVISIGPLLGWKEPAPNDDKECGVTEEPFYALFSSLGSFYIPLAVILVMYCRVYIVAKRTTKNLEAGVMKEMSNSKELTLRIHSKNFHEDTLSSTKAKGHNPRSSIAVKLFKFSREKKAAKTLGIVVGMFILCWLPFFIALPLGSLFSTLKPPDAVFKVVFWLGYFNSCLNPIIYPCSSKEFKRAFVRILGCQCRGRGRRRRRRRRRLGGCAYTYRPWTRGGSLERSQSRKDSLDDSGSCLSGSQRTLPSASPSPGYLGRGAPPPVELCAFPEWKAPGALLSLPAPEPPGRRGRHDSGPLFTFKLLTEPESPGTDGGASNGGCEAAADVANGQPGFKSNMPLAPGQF
- METHOD SUMMARY: Inhibition of alpha1B adrenergic receptor at 1 uM
READOUT KIND: inhibition (%)
Numbers only, in %.

Below, 3 compounds whose answers are already recorded.
COMPOUND: COc1ccc2c(c1)c1c(n2S(=O)(=O)c2ccccc2)CCC(N(C)C)C1 (racemic)
MEASURED NUMBER: 5.21
//
COMPOUND: CN(C)C1CCc2c(c3ccccc3n2S(=O)(=O)c2cccc(C(F)(F)F)c2)C1 (racemic)
MEASURED NUMBER: 5.26
//
COMPOUND: CN(C)C1CCc2c(c3cc(Br)ccc3n2S(=O)(=O)c2ccccc2)C1 (racemic)
MEASURED NUMBER: 4.22

Now consider the entry below.
Query: Return reported inhibition. Input compound: CN(C)C1CCc2c(c3ccccc3n2S(=O)(=O)c2cccc(Cl)c2)C1 (racemic)
Reply: 4.24

* * *

Please provide measured inhibition for the entries that follow.
- TGT: D(2) dopamine receptor (Homo sapiens)
- METHOD SUMMARY: Inhibition of dopamine D2 receptor at 1 uM
Give bare numbers, in %.

Please look at the items below and tell me inhibition for each one, in order.
1. CN(C)C1CCc2c(c3ccccc3n2S(=O)(=O)c2cccc(Cl)c2)C1 (racemic)
2. COc1ccc2c(c1)c1c(n2S(=O)(=O)c2ccccc2)CCC(N(C)C)C1 (racemic)

Reply:
[15.3, 11]

Please look at the items below and tell me inhibition for each one, in order.
1. CN(C)C1CCc2c(c3ccccc3n2S(=O)(=O)c2cccc(C(F)(F)F)c2)C1 (racemic)
2. CN(C)C1CCc2c(c3cc(Br)ccc3n2S(=O)(=O)c2ccccc2)C1 (racemic)

Reply:
[16.3, 16.4]
